The measured values listed here are drawn from patent US20130164259A1.

# target-or-test-system: HCV NS5B polymerase (NS5BΔCT21) (Hepatitis C virus genotype 1b)
# Construct: A soluble C-terminal 21-amino acid truncated NS5B enzyme form; polyhistidine (C)
# assay-protocol: HCV NS5B Polymerase Inhibition Assay
result-type: IC50 (µM)
// note: answer is a bare numeric in µM

Example cases with answers are listed next.
{"columns": ["molecule", "IC50 [µM]"],
 "data": [
  ["Cc1ncccc1C(=O)Nc1ccc(C(C)C)cc1N1CCN(c2ccncn2)CC1 [Compound 57]", 0.1],
  ["CC(C)c1ccc(NC(=O)c2cccnc2C(F)(F)F)c(N2CCN(c3cnccn3)CC2)c1 [Compound 7]", 2.3],
  ["C=C(C)c1ccc(NC(=O)c2cccnc2)c(N2CCN(c3cnccn3)CC2)c1 [Compound 64]", 7],
  ["Cc1cncc(C(=O)Nc2ccc(C(C)C)cc2N2CCN(c3cnccn3)CC2)c1 [Compound 18]", 2.3]
]}

Okay, next one:
Record summary for Cc1ccc(C(=O)Nc2ccc(C(C)C)cc2N2CCN(c3cnccn3)CC2)cn1 [Compound 17] : reported IC50 = 14

====

# target-or-test-system: HCV NS5B polymerase (NS5BΔCT21) (Hepatitis C virus genotype 1b, UniProt Q9WMX2)
# Construct: A soluble C-terminal 21-amino acid truncated NS5B enzyme form; polyhistidine (C)
# assay-protocol: HCV NS5B Polymerase Inhibition Assay
result-type: IC50 (µM)
// note: answer is a bare numeric in µM

{"columns": ["compound", "IC50 [µM]"],
 "data": [
  ["Cc1c(F)cc(C(=O)Nc2ccc(C(C)C)cc2N2CCN(c3cnccn3)CC2)cc1F [Compound 16]", 5.6],
  ["CSCc1nccc(N2CCN(c3cc(C(C)C)ccc3NC(=O)c3cccnc3C)CC2)n1 [Compound 58]", 0.027],
  ["Cc1ncoc1C(=O)Nc1ccc(C(C)C)cc1N1CCN(c2cnccn2)CC1 [Compound 28]", 14]
]}

Record summary for Cc1cnc(N2CCN(c3cc(C(C)C)ccc3NC(=O)c3cccnc3)CC2)s1 [Compound 49] : reported IC50 = 3.9

Record summary for Cc1ncccc1C(=O)Nc1ccc(C(C)C)cc1N1CCN(c2cncc(-c3ccccc3)n2)CC1 [Compound 62] : reported IC50 = 17

====

# target-or-test-system: HCV NS5B polymerase (NS5BΔCT21) (Hepatitis C virus genotype 1b, UniProt Q9WMX2)
# Construct: A soluble C-terminal 21-amino acid truncated NS5B enzyme form; polyhistidine (C)
# assay-protocol: HCV NS5B Polymerase Inhibition Assay
# log10 of IC50 per record follows
Values reflect log10 of reported IC50 (µM).

{"columns": ["substance-smiles", "log10 of IC50"],
 "data": [
  ["Cc1occc1C(=O)Nc1ccc(C(C)C)cc1N1CCN(c2cnccn2)CC1", 1.18],
  ["Cc1nocc1C(=O)Nc1ccc(C(C)C)cc1N1CCN(c2cnccn2)CC1", 1.11],
  ["Cc1nc(N(C)C)sc1C(=O)Nc1ccc(C(C)C)cc1N1CCN(c2cnccn2)CC1", 1.00],
  ["Cc1c(F)cccc1C(=O)Nc1ccc(C(C)C)cc1N1CCN(c2cnccn2)CC1", 0.61],
  ["Cc1nccnc1N1CCN(c2cc(C(C)C)ccc2NC(=O)c2cccnc2)CC1", 0.59]
]}

Hey, HCV NS5B polymerase (NS5BΔCT21) (Hepatitis C virus genotype 1b, UniProt Q9WMX2) data for `Cc1c(F)ccc(F)c1C(=O)Nc1ccc(C(C)C)cc1N1CCN(c2cnccn2)CC1` : log10 of IC50 came out at 1.73

Hey, HCV NS5B polymerase (NS5BΔCT21) (Hepatitis C virus genotype 1b, UniProt Q9WMX2) data for `Cc1ncccc1C(=O)Nc1ccc(C(C)C)cc1N1CCN(c2ncnc3[nH]ccc23)CC1` : log10 of IC50 came out at -1.49

Hey, HCV NS5B polymerase (NS5BΔCT21) (Hepatitis C virus genotype 1b, UniProt Q9WMX2) data for `Cc1cncc(N2CCN(c3cc(C(C)C)ccc3NC(=O)c3cccnc3)CC2)n1` : log10 of IC50 came out at -0.30

Hey, HCV NS5B polymerase (NS5BΔCT21) (Hepatitis C virus genotype 1b, UniProt Q9WMX2) data for `CC(C)c1ccc(NC(=O)c2cccnc2C2CC2)c(N2CCN(c3cnccn3)CC2)c1` : log10 of IC50 came out at 0.30

Hey, HCV NS5B polymerase (NS5BΔCT21) (Hepatitis C virus genotype 1b, UniProt Q9WMX2) data for `O=C(Nc1ccc(C2CC2)cc1N1CCN(c2cnccn2)CC1)c1cccnc1` : log10 of IC50 came out at 1.08

Hey, HCV NS5B polymerase (NS5BΔCT21) (Hepatitis C virus genotype 1b, UniProt Q9WMX2) data for `CC(C)c1ccc(NC(=O)c2ccc(C(F)(F)F)nc2)c(N2CCN(c3cnccn3)CC2)c1` : log10 of IC50 came out at 0.36

Hey, HCV NS5B polymerase (NS5BΔCT21) (Hepatitis C virus genotype 1b, UniProt Q9WMX2) data for `Cc1ccnc(N2CCN(c3cc(C(C)C)ccc3NC(=O)c3cccnc3)CC2)n1` : log10 of IC50 came out at 0.18

====

# target-or-test-system: HCV NS5B polymerase (NS5BΔCT21) (Hepatitis C virus genotype 1b, UniProt Q9WMX2)
# Construct: A soluble C-terminal 21-amino acid truncated NS5B enzyme form; polyhistidine (C)
# assay-protocol: HCV NS5B Polymerase Inhibition Assay
result-type: log10 of IC50 (log10 of the value in µM)
Values reflect log10 of reported IC50 (µM).

{"columns": ["substance-smiles", "result-type", "result-value"],
 "data": [
  ["CC(C)c1ccc(NC(=O)c2cccnc2)c(N2CCN(c3nccs3)CC2)c1", "log10 of IC50", 0.40],
  ["CC(C)c1ccc(NC(=O)c2cnc3ccccc3c2)c(N2CCN(c3cnccn3)CC2)c1", "log10 of IC50", 0.83],
  ["CC(C)c1ccc(NC(=O)c2cccnc2O)c(N2CCN(c3cnccn3)CC2)c1", "log10 of IC50", 0.48],
  ["Cc1cnc(C)c(N2CCN(c3cc(C(C)C)ccc3NC(=O)c3cccnc3)CC2)n1", "log10 of IC50", 2.15],
  ["CC(C)c1ccc(NC(=O)c2cccc(F)c2)c(N2CCN(c3cnccn3)CC2)c1", "log10 of IC50", 0.00],
  ["Cc1ncsc1C(=O)Nc1ccc(C(C)C)cc1N1CCN(c2cnccn2)CC1", "log10 of IC50", -0.24],
  ["CC(C)c1ccc(NC(=O)c2cccnc2)c(N2CCN(c3ccncn3)CC2)c1", "log10 of IC50", -0.25],
  ["CC(C)c1ccc(NC(=O)c2cccnc2)c(N2CCN(c3cnccn3)CC2)c1", "log10 of IC50", 0.48]
]}

Okay, next one:
Record summary for `O=C(Nc1ccc(I)cc1N1CCN(c2cnccn2)CC1)c1cccnc1` : reported log10 of IC50 = 1.11

====

# target-or-test-system: HCV NS5B polymerase (NS5BΔCT21) (Hepatitis C virus genotype 1b, UniProt Q9WMX2)
# Construct: A soluble C-terminal 21-amino acid truncated NS5B enzyme form; polyhistidine (C)
# assay-protocol: HCV NS5B Polymerase Inhibition Assay
# IC50 per record follows

{"columns": ["substance-smiles", "IC50"],
 "data": [
  ["Cc1cnc(C(=O)Nc2ccc(C(C)C)cc2N2CCN(c3cnccn3)CC2)cn1", "> 20 µM"],
  ["CC(C)c1ccc(NC(=O)c2cccnc2)c(N2CCN(S(C)(=O)=O)CC2)c1", "> 200 µM"]
]}

Okay, next one:
Record summary for `O=C(Nc1ccc(C(F)(F)F)cc1N1CCN(c2cnccn2)CC1)c1cccnc1` : reported IC50 = > 20 µM

====

# target-or-test-system: HCV NS5B polymerase (NS5BΔCT21) (Hepatitis C virus genotype 1b, UniProt Q9WMX2)
# Construct: A soluble C-terminal 21-amino acid truncated NS5B enzyme form; polyhistidine (C)
# assay-protocol: HCV NS5B Polymerase Inhibition Assay
result-type: IC50

Record summary for `Cc1n[nH]cc1C(=O)Nc1ccc(C(C)C)cc1N1CCN(c2cnccn2)CC1` : reported IC50 = > 200 µM

Record summary for `CCOC(=O)c1ccc(NC(=O)c2cccnc2)c(N2CCN(c3cnccn3)CC2)c1` : reported IC50 = > 5 µM

Record summary for `CC(C)c1ccc(NC(=O)c2cccnc2)c(N2CCN(C(=O)OC(C)(C)C)CC2)c1` : reported IC50 = > 200 µM

====

# target-or-test-system: HCV NS5B polymerase (NS5BΔCT21) (Hepatitis C virus genotype 1b)
# Construct: A soluble C-terminal 21-amino acid truncated NS5B enzyme form; polyhistidine (C)
# assay-protocol: HCV NS5B Polymerase Inhibition Assay
pIC50: −log10 of the molar value.
result-type: pIC50

Record summary for `CC(C)c1ccc(NC(=O)c2cncnc2)c(N2CCN(c3cnccn3)CC2)c1` : reported pIC50 = < 4.70

Record summary for `C=C(C)c1ncccc1C(=O)Nc1ccc(C(C)C)cc1N1CCN(c2cnccn2)CC1` : reported pIC50 = < 3.70

Record summary for `O=C(Nc1ccc(Br)cc1N1CCN(c2cnccn2)CC1)c1cccnc1` : reported pIC50 = < 4.70

Record summary for `CC(C)c1ccc(NC(=O)c2cnc3[nH]ccc3c2)c(N2CCN(c3cnccn3)CC2)c1` : reported pIC50 = < 4.70

Record summary for `CC(C)c1ccc(NC(=O)c2ccccn2)c(N2CCN(c3cnccn3)CC2)c1` : reported pIC50 = < 4.70

Record summary for `CC(C)c1ccc(NC(=O)c2cccnc2)c(N2CCN(C(=O)Nc3ccccc3)CC2)c1` : reported pIC50 = < 4.00
